List of melting point values.

Compound | melting point
CCCCCCCCc1cc2c(s1)-n1c(C)nnc1CN=C2c1ccccc1Cl | 80 to 82 °C
CCn1ncnc1COc1nc2c(nnn2-c2ccccc2)c2ccccc12 | 192 to 195 °C
NS(=O)(=O)Cc1ccccc1-c1nnc(S)o1 | 224 to 227 °C
C1=C(c2cc3ccccc3s2)CCC2(C1)CCNCC2 | 107 to 110 °C
CN(Cc1ccc(COOC(=O)NC(Cc2ccccc2)C(=O)O)cc1)c1ccccc1 (stereo not drawn) | 69.6 to 70.1 °C
Cc1ccc(S(=O)(=O)N[C@@H]2CCCC[C@H]2N)cc1 (relative stereo) | 93 to 95 °C
Cc1nc2sc3ccccc3n2c1C(C)O (stereo not drawn) | 173 to 174 °C
CCOC(=O)C(C)Oc1ccc(OCc2ccccc2)cc1F (stereo not drawn) | 63 °C
COc1cc(-c2ncn(-c3cc(OC)c(OC)c(OC)c3)c2-c2cc(OC)c(OC)c(OC)c2)cc(OC)c1OC | 169 to 171 °C
COC(=O)c1cc(Cl)cc2c1OC(C)(C)C(=O)N2 | 178 to 179 °C
CCOCc1nc2c(N)nc3cc(OCc4cccc(C)c4)ccc3c2n1CC(C)(C)NS(C)(=O)=O | 252 to 254 °C
CC1CC(=O)c2cc(Cl)ccc2O1 (stereo not drawn) | 100 to 102 °C
N#Cc1ccc(N2CC(CO)OC2=O)cc1 (stereo not drawn) | 186 °C
N#Cc1ccc(F)c(C(c2cc(N)ncc2Cl)S(=O)(=O)c2ccc(Cl)cc2)c1 (stereo not drawn) | > 220 °C
Cc1cnc2c(C#N)cnn2c1-c1ccc(Cl)cc1 | 154 to 157 °C
OCc1ccc(OCc2ccccc2)c(F)c1 | 56 to 57 °C
CCN(CC)C(=O)Nc1ccc(S(=O)(=O)n2c(=O)n(C3CCCCCC3)c3cc(Cl)ccc32)c(OC)c1 | 218 °C
O=C(O)c1cccnc1Nc1cccc(Cl)c1 | 197 to 199 °C
COC(=O)C(=O)c1cc2ccccc2n1S(=O)(=O)c1ccccc1 | 111 to 112 °C
CCCC[C@]1(CC)CSc2cc(OC)c(OC)cc2[C@@H](c2ccccc2)N1 | 64 to 66 °C
CCOC(CC(=O)Nc1cc(CCNC(=O)C(F)(F)F)ccc1OC)OCC | 79 to 80 °C
Nc1cccc(S(=O)(=O)N2CC=CC2)c1 | 187 to 188 °C
COc1cc(OS(=O)(=O)OC(F)(F)F)c2c(=O)c3ccc(Cl)cc3n(C)c2c1 | 234 to 236 °C
CCc1cc(NCc2ccc(-c3ccccc3C#N)cc2)n2ccnc2n1 | 99 to 100 °C
CNC(=O)CCc1c(-c2ccccc2)n(C)c(=O)c2ccccc12 | 185 to 186 °C
CCCCn1c(=O)c2c(Cl)cc(Cl)cc2n(Cc2ccccc2)c1=O | 101 to 109 °C
CNc1nc(N)nc(NC2CC2)n1 | 159 to 162 °C
CC(C)C(=O)c1nccnc1SCc1ccco1 | 57 to 58 °C
COC(=O)C1=C(NC(=O)Nc2cc(C(=O)OC(C)C)c(Cl)cc2F)CCS1 | 161 to 163 °C
CSC(=NCc1cccnc1)NC#N | 152 to 154 °C
COc1cc2c(cc1C(F)(F)F)N(C(=O)Nc1cncc(Br)c1)CC2 | 220 to 222 °C
NC(=S)N1CCN(c2ccccc2)CC1 | 178 to 179 °C
COC(=O)C(CO)NS(=O)(=O)c1ccc(OC)cc1 (stereo not drawn) | 92 to 94 °C
CSc1nn2c(N3CCN(C)CC3)ccnc2c1S(=O)(=O)c1ccccc1 | 107 to 109 °C
Cn1c(Cc2ccc(Cl)cc2Cl)nc2cc(C(=O)O)ccc2c1=O | 266 to 271 °C
C[C@H]1[C@H](c2ccccc2)OC(c2cc(Br)cc3c2OCC3)N1C (stereo partly drawn) | 83.5 to 85.5 °C
CCOC(=O)C1=C(C=NO)Nc2nccn2C1c1cccc([N+](=O)[O-])c1 (stereo not drawn) | 229 to 230 °C
CC1CC2CC(C)(CN2)C1(C)C(=O)C=CCO (stereo not drawn) | 72 to 75 °C
Cc1nc2c(N)nc3ccccc3c2n1CCCS(C)(=O)=O | 225 to 228 °C
OC1CSC(Oc2cncc(-c3ccccc3F)c2)C(O)C1O (stereo not drawn) | 206 to 208 °C
CN1CCC(O)(c2cnc3ccccc3c2)CC1 | 175 °C
OCc1c[nH]c(Cc2ccccc2)n1 | 134 to 135 °C
C=CCNC(=S)N1CCc2[nH]cnc2C1 | 172 °C

###

Parameter: melting point

Compound | Parameter | Observed Measurement
Cc1n[nH]c(=O)c(-c2c(F)cc(F)cc2F)c1Cc1ccc(Cl)cc1 | melting point | 212 to 215 °C
Cc1cccc(-c2nc3ccc(O)cc3n2Cc2ccccc2Br)c1 | melting point | 218 °C
CCc1noc(-c2cn(-c3cccnc3)cn2)n1 | melting point | 152 to 153 °C
CCn1cc(C(=O)O)c(=O)c2cc(F)c(OC3CCN(C)CC3)cc21 | melting point | 268 to 271 °C
Cn1ccnc1CCc1cc2c(cc1O)CCO2 | melting point | 190 to 191 °C
Cc1nnc(-c2ccc3occ(-c4ccc(S(C)(=O)=O)c(F)c4)c3c2)o1 | melting point | 199 to 200 °C
Nc1ccc2ccccc2c1S | melting point | 108 to 110 °C
Cc1n[nH]c(-c2cc(Cl)ccc2N)n1 | melting point | 190 to 195 °C
CC=CC(=O)c1c(CCC)[nH]c2cc(C(=O)OC)ccc12 | melting point | 153 to 154 °C
CC(C)(C)C(NC(=O)c1ccc(Cl)cc1)Nc1c(Nc2cccnc2)c(=O)c1=O (configuration not stated) | melting point | 257 to 258 °C
COc1cccc2ocnc12 | melting point | 72 to 74 °C
CC(C)Cn1c(CO)c(-c2ccc(F)cc2)c2cc(OCc3ccccc3)ccc2c1=O | melting point | 143 to 144 °C
CNc1c([N+](=O)[O-])c(Br)nn1Cc1ccccc1 | melting point | 116 °C
Nc1nc2ccccc2c2c1ncn2CCOCCCc1nccs1 | melting point | 134 to 135 °C
CCCNC(=O)CN1C(=O)C2(COc3cc4c(cc32)CCO4)c2ccccc21 (configuration not stated) | melting point | 207 to 209 °C
Cc1ccc(CNC(=O)c2cc(Cl)cc3cc(C)oc23)cc1 | melting point | 130 to 132 °C
CCc1nn(C2CCCC2)c(N)c1C#N | melting point | 171 to 173 °C
CC(=O)NC[C@H]1CN(c2ccc(N3CCC(Cc4nnc(-c5ccccc5)o4)CC3)c(F)c2)C(=O)O1 | melting point | 199 to 200 °C
Cc1c(I)nc2n1CCc1ccccc1C2OC1CCN(C)CC1 (configuration not stated) | melting point | 59 °C
CCN1C(=O)C(=S2CN(CC)c3ccccc32)SC1=S (configuration not stated) | melting point | 246 to 248 °C
CCOC(=O)C(=CNc1ccc(F)c(N2CCN(C(C)=O)CC2)n1)C(=O)OCC | melting point | 164 to 165 °C
COC(=O)C=Cc1ccc(C=O)cc1 | melting point | 82 to 84 °C
CC(=O)Nc1ccc(-c2ccccc2)cc1[N+](=O)[O-] | melting point | 128 to 131 °C
CCCC(O)c1cc(C#N)ccc1OCc1ccc(Cl)cc1Cl (configuration not stated) | melting point | 120 to 121 °C
COC(=O)[C@@]1(c2ccc3ccccc3c2)CC1(c1ccccc1)c1ccccc1 | melting point | 138 to 139 °C
CC#CCOc1ccc(SC(C(=O)NO)c2ccc(OC)cc2)cc1 (configuration not stated) | melting point | 156 °C
CCOC(=O)c1nc2ccc([N+](=O)[O-])cc2c(=O)[nH]1 | melting point | 227 to 228 °C
CCCc1cnc(NC(=O)C2c3ccccc3Oc3ccccc32)o1 | melting point | 203 to 205 °C
CCN(CC)C(=O)OCC1CN(C(=S)c2cc(OC)c(OC)c(OC)c2)CCN1C(=O)c1cc(OC)c(OC)c(OC)c1 (configuration not stated) | melting point | 106 °C
COc1ccc(Br)cc1CN1CCC(=O)C(C(c2ccc(F)cc2)c2ccc(F)cc2)C1 (configuration not stated) | melting point | 129 to 130 °C
C=CCOC(=O)c1ccc(NC(=O)C(C(=O)OC)c2ccc3c(c2)C(C)(C)CCC3(C)C)cc1 (configuration not stated) | melting point | 155 to 156 °C
O=C1CC(c2cccc(-n3ccnn3)c2)=Nc2ccc(-c3ccc(F)cc3)cc2N1 | melting point | 218 to 220 °C
CCc1c2c(nc3ccccc13)-c1cc3c(c(=O)n1C2)COC(=O)CC3(O)CC (configuration not stated) | melting point | > 280 °C
C=C(CC(=O)Nc1cc(Cl)cc(Cl)c1)C(=O)O | melting point | 185 °C
Cc1ccc(C(=O)NC(NC(=S)Nc2c(F)cccc2F)C(F)(F)F)cc1 (configuration not stated) | melting point | 185 to 186 °C
CCCCCCCCCCCC(=O)c1c[nH]c2cc(C(=O)OC)ccc12 | melting point | 167 to 169 °C
NC(=O)C=Cc1cccs1 | melting point | 153 °C
CCCCCNC(=O)N(C)c1cccc(-c2ccc(CCC(=O)O)cc2)c1 | melting point | 100 to 102 °C
CCN(CC)c1nc(C(C)(C)C)nn1-c1c([N+](=O)[O-])cc(C(F)(F)F)cc1[N+](=O)[O-] | melting point | 64 to 65 °C
CCCn1ncnc1COc1nn2c(-c3ccccc3F)nncc2c1C(C)(C)C | melting point | 93 °C
COC1C(O)C(CO)OC1n1cnc2c(NC3CC=CCC3c3cccs3)ncnc21 (configuration not stated) | melting point | 86 to 89 °C
CCCn1nc2c(N)nc3ccccc3c2c1CCc1ccccc1 | melting point | 175 to 176 °C
